TGT: Aminopeptidase N (Plasmodium falciparum (isolate 3D7)) (UniProt O96935)
Sequence (O96935 whole entry, looked up): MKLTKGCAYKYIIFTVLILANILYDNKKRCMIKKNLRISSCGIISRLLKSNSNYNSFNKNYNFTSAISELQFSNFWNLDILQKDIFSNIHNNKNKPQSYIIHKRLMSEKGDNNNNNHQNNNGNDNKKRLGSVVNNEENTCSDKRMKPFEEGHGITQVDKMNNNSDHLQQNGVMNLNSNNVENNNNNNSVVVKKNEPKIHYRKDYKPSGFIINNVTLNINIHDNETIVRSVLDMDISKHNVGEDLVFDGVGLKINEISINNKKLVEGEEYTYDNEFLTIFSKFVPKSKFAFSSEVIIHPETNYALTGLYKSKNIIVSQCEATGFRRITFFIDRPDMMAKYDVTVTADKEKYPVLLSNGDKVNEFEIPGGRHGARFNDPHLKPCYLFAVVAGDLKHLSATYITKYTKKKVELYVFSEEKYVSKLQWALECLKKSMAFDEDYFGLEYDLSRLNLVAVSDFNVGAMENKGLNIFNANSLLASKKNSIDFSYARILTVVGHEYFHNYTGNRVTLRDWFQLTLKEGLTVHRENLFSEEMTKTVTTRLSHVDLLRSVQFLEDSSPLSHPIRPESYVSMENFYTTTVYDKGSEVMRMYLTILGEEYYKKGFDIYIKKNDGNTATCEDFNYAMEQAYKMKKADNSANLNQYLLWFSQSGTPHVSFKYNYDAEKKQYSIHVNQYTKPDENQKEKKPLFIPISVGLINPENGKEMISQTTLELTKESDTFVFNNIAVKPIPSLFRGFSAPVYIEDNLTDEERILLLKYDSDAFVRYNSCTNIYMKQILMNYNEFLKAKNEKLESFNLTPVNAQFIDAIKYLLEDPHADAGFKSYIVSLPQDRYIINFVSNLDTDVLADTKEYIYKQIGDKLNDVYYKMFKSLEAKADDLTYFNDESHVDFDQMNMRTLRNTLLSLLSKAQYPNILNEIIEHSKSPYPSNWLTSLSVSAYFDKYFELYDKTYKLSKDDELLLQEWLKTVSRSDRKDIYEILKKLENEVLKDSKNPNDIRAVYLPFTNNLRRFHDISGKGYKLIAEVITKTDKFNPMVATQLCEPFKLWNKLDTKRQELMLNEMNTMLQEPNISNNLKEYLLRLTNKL
TEST METHOD NOTES: malaria alanyl aminopeptidase activity blockers – biochemical, fluorogenic H-Leu-NHMec substrate, 1536-well (AID 1445);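 note: plate controls were DMSO full reaction for no effect and no enzyme background for full effect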
CONDITION DESCRIPTION: recombinant M1AAP, H-Leu-NHMec fluorogenic kinetic assay; at 30 µM, hits give high values unless noted
Hit rate of the full screen: of about 220,000 compounds, about 910 (0.41%) were called active. Many of the other results were omitted from the sample, so actives are more common in it than they were. Results with a measured potency or affinity are listed apart.
QUANTITY: inhibition (%)
Lab book: enter the figure in %, no units written.

Look over these answered cases.
>  <MOLECULE>
COC(=O)[C@H](CC(C)C)NC(=O)NCc1ccc(Cl)cc1

>  <inhibition [%]>
5.26

$$$$
>  <MOLECULE>
Cc1oc(-c2cccs2)nc1CN1CC[C@@](O)(c2ccccc2)[C@H]2CCCC[C@@H]21

>  <inhibition [%]>
4.34

$$$$
>  <MOLECULE>
CCOCCCNC(=O)CN(c1cc([N+](=O)[O-])ccc1OC)S(C)(=O)=O

>  <inhibition [%]>
2.57

$$$$

Please find the next molecule below.
Enter reported inhibition observed with Aminopeptidase N (Plasmodium falciparum (isolate 3D7)) (UniProt O96935) for COc1ccc(C2CCCN2C(=S)Nc2ccccc2C)cc1OC (centres undefined) -1.92

====

TGT: Aminopeptidase N (Plasmodium falciparum (isolate 3D7))
TEST METHOD NOTES: malaria alanyl aminopeptidase activity blockers – biochemical, fluorogenic H-Leu-NHMec substrate, 1536-well (AID 1445);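 note: plate controls were DMSO full reaction for no effect and no enzyme background for full effect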
CONDITION DESCRIPTION: recombinant M1AAP, H-Leu-NHMec fluorogenic kinetic assay; at 30 µM, hits give high values unless noted
Screen size: about 220,000 compounds; about 910 (0.41%) were called active. Many of the other results were omitted from the sample, so actives are more common in it than they were. Results with a measured potency or affinity are listed apart.
Form field: inhibition (one value per entry).
Lab book: enter the figure in %, no units written.

Which value of inhibition has been reported for `CCOC(=O)c1ccc(Nc2nnc(C)c3ccccc23)cc1` in the records? 6.41

Which value of inhibition has been reported for `Cc1ccc(S(=O)(=O)c2c(C)nn(-c3ccccc3)c2OC(=O)c2ccco2)cc1` in the records? 6.34

Which value of inhibition has been reported for CC1(C)CC(=O)C2=C(C1)c1c(ccc3ccccc13)NC2c1ccco1 (stereo not given) in the records? 0.07

Which value of inhibition has been reported for `Cc1ccc(S(=O)(=O)c2c(C)nn(C(C)(C)C)c2OC(=O)c2ccco2)cc1` in the records? 27.3

Which value of inhibition has been reported for Cc1ccc(NCc2nnc(SCC(=O)Nc3ncc(C)s3)n2CC2CCCO2)c(C)c1 (stereo not given) in the records? 0.09

====

TGT: Aminopeptidase N (Plasmodium falciparum (isolate 3D7))
TEST METHOD NOTES: malaria alanyl aminopeptidase activity blockers – biochemical, fluorogenic H-Leu-NHMec substrate, 1536-well (AID 1445);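 note: plate controls were DMSO full reaction for no effect and no enzyme background for full effect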
CONDITION DESCRIPTION: recombinant M1AAP, H-Leu-NHMec fluorogenic kinetic assay; at 30 µM, hits give high values unless noted
Among all 220,000 compounds or so, about 910 (0.41%) were called active. The entries come from a sample that favours actives as a whole. Measured potencies and affinities stand elsewhere.
QUANTITY: inhibition (%)
Lab book: enter the figure in %, no units written.

>  <MOLECULE>
COc1cccc(/C=N/NC(=O)CN2CC(c3ccccc3)CC2=O)c1OC (stereo not given)

>  <DATA VALUE>
0.13

$$$$

Please find the next molecule below.
Enter reported inhibition observed with Aminopeptidase N (Plasmodium falciparum (isolate 3D7)) for `COc1cc(/C=N\NC(=O)c2sc(N)nc2C)cc(OC)c1OC` 8.26
